Values were extracted from patent US20100069393A1.

Experiment: Neurotoxicity assay: MTS viability of primary cortical neuronal cultures
Type: cell-based, mouse
Conditions: BL6Jx129sv, mouse, primary cortical neuronal cultures, Neuronal cells, test compound 1 uM; read-out: Cytotoxicity (% viable at 1 and 10 uM)
MEASURED ENDPOINT: viability at 4 days, 1 uM (%)
The figure you give is taken to be in %; do not add the unit.

Would you please look over these solved cases?
Name the recorded viability at 4 days, 1 uM for `Oc1c(C2CC2)ncc2cccnc12` .
100

What value of measured viability at 4 days, 1 uM is listed for CN1CCCC1CCn1cnc2c(O)c(Cl)cc(Cl)c2c1=O (centres unmarked) ?
105

Please look up its viability at 4 days, 1 uM: `CN1CCN(n2cnc3c(O)c(Cl)cc(Cl)c3c2=O)CC1`
96

Which viability at 4 days, 1 uM value belongs to `Cc1cnc(NC(=O)c2ccc3cccc(O)c3n2)s1` ?
94

What does the record list as viability at 4 days, 1 uM for `N=C(N)NCc1ccc2cccc(O)c2n1` ?
100

For the compound `Oc1c(-c2ccccc2C(F)(F)F)cc(Cl)c2cccnc12` , what viability at 4 days, 1 uM is on record?
96

Continuing:
I would be grateful if you could share the reported viability at 4 days, 1 uM for `Oc1c(-c2cccc(F)c2)cc(Cl)c2cccnc12` .
98

Query (compound): `Oc1cccc2ccc(CN(Cc3ccccn3)Cc3ccccn3)nc12` ; field requested: viability at 4 days, 1 uM
87

Field request: viability at 4 days, 1 uM | item: `Cc1ccc(-n2cnc3c(O)c(Cl)cc(Cl)c3c2=O)nc1`
96

Consider the compound `Oc1c(-c2cc(F)cc(F)c2)cc(Cl)c2cccnc12` and give its measured viability at 4 days, 1 uM.
90

Sample Br.CCC(C)n1cnc2c(O)c(Cl)cc(Cl)c2c1=O (centres unmarked) [drawing 185] — what was its viability at 4 days, 1 uM?
104

So what does the record say about viability at 4 days, 1 uM for `Nn1cnc2c(O)c(Cl)cc(Cl)c2c1=O` ?
103

If you can, please state the reported viability at 4 days, 1 uM value of `Oc1c(-c2ccccc2F)cc(Cl)c2cccnc12` .
96

Need viability at 4 days, 1 uM, item `CC(=O)Nc1ccc2cccc(O)c2n1`
93

Need viability at 4 days, 1 uM, item `O=C(O)c1ccc2c(Cl)cc(Cl)c(O)c2n1`
88

Quick one: viability at 4 days, 1 uM of `O=c1c2c(Cl)cc(Cl)c(O)c2ncn1CC1CCNCC1` ?
97

Look at this compound and give its reported viability at 4 days, 1 uM. `O=C(CNC(=O)c1cc(O)c2cccc(O)c2n1)NCc1ccccn1`
93

Which measured viability at 4 days, 1 uM value corresponds to CC(Br)CCn1cnc2c(O)c(Cl)cc(Cl)c2c1=O (centres unmarked) ?
101

Param item = `O=c1[nH]cnc2c(O)c(Cl)cc(Cl)c12` ; retrieve measured viability at 4 days, 1 uM.
100

Look up viability at 4 days, 1 uM: `Cc1ccc2cccc(O)c2n1`
98

# viability at 4 days, 1 uM lookup, item `O=c1c2c(Cl)cc(Cl)c(O)c2ncn1N1CCOCC1`
105

Need viability at 4 days, 1 uM, item O=c1c2c(Cl)cc(Cl)c(O)c2ncn1-c1ccccn1 [drawing 171]
95

====

Below: a set of entries, each annotated with reported viability at 10 uM.
Experiment: Cytotoxicity: viability of M17 cells
Settings: human, M17 neuroblastoma cells, Cytotoxicity (% viable at 1 and 10 uM), test compound 10 uM
Reply with just the number (in %).

Reported viability at 10 uM for `Br.CNCc1nc2c(O)c(Cl)cc(Cl)c2c(=O)n1C` : what is it?
90.6

Recorded viability at 10 uM of O=c1c(CCCC2CCSS2)cnc2c(O)cccn12 (stereo not shown) , please.
27.2

Return reported viability at 10 uM; argument: `O=C1c2ccccc2C(=O)N1CCn1cnc2c(O)cccc2c1=O`
106

Requested field: viability at 10 uM. Item: `O=C(Nc1cnc2ccccc2c1)c1cnc2c(O)cccn2c1=O`
32.8

Query: viability at 10 uM; subject: `O=c1c(-c2ccc(Cl)cc2)cnc2c(O)cccn12`
25.8

---
// returns reported viability at 10 uM for input `CCn1cnc2c(O)c(I)cc(Cl)c2c1=O`
50.4

Using the record for `O=C1c2ccccc2C(=O)N1CCn1cnc2c(O)c(Cl)cc(Cl)c2c1=O` , report its viability at 10 uM.
101

Form field: reported viability at 10 uM of `CCCCc1cnc2c(O)c(-c3ccc(F)cc3)ccn2c1=O`
37.9

Could you tell me which viability at 10 uM is on file for `CCCCNC(=O)c1cnc2c(O)cccn2c1=O` ?
48.4

// viability at 10 uM lookup, key: `Nc1cc(Cn2cnc3c(O)c(Cl)cc(Cl)c3c2=O)ccn1`
93.9

I am curious: what viability at 10 uM value has been reported for `CCNC(=O)c1cnc2c(O)c(CC)ncc2c1.Cl` ?
92.1

Recorded viability at 10 uM of `COc1ccc(-n2cnc3c(O)cccc3c2=O)cn1` , please.
110

Which viability at 10 uM is reported for this compound? `CCCCc1cnc2c(O)c(-c3cccc(OC)c3)ccn2c1=O`
59.1

====

Property: viability at 1 uM; scope: individual compounds
Experiment: Cytotoxicity: viability of M17 cells
Settings: human, M17 neuroblastoma cells, Cytotoxicity (% viable at 1 and 10 uM), test compound 1 uM
Only the number, expressed in %, is required.

For `O=c1c2cccc(O)c2ncn1-c1ccc(F)cc1F` , what is its reported viability at 1 uM?
104

---
I'd like to know its viability at 1 uM. The compound in question is `O=c1c2cccc(O)c2ncn1Cc1ccc(F)cc1`
97.2

Quick check: viability at 1 uM of `Br.CN(C)Cc1nc2c(O)c(Cl)cc(Cl)c2c(=O)n1C` ?
104

Could you tell me which viability at 1 uM is on file for `CCCS(=O)(=O)NCCn1cnc2c(O)c(I)ccc2c1=O` ?
104

Would you mind telling me what viability at 1 uM value was observed for `CCn1cnc2c(O)c(Cl)cc(Cl)c2c1=O` ?
104

====

Test: Neurotoxicity assay: MTS viability of primary cortical neuronal cultures
Format: cell-based, mouse
Conditions: BL6Jx129sv, mouse, primary cortical neuronal cultures, Neuronal cells, test compound 1 uM; read-out: Cytotoxicity (% viable at 1 and 10 uM)
MEASURED ENDPOINT: viability at 4 days, 1 uM (%)
Give just the numeric value; % need not be written.

Below, 4 compounds whose answers are already recorded.
Request the reported viability at 4 days, 1 uM associated with `O=c1c2c(Cl)cc(Cl)c(O)c2ncn1Cc1ccccn1`
99

Param item = `O=c1c2c(Cl)cc(Cl)c(O)c2ncn1CCc1ccccn1` ; retrieve measured viability at 4 days, 1 uM.
100

Need viability at 4 days, 1 uM, item `O=c1c2c(Cl)cc(Cl)c(O)c2ncn1N1CCCC1`
101

I have this compound here, `CNCc1ccc2c(Cl)cc(Cl)c(O)c2n1` , and I need its recorded viability at 4 days, 1 uM.
86

New cases:
Name the recorded viability at 4 days, 1 uM for `Cc1nccn1-c1ccc2cccc(O)c2n1` .
104

====

Test: Cytotoxicity: viability of M17 cells
Conditions: human, M17 neuroblastoma cells, Cytotoxicity (% viable at 1 and 10 uM), test compound 1 uM
As shown below, each of these compounds has a reported viability at 1 uM value.

See these solved cases before continuing.
Consider the compound shown here: `O=c1c2c(Cl)cc(Cl)c(O)c2ncn1-c1ccc(F)cc1` What is its recorded viability at 1 uM?
93.2%

Bench note: what viability at 1 uM did `CCCn1cnc2c(O)ccc(Cl)c2c1=O` show?
89.4%

Moving on to the next compound.
What does the data say about its viability at 1 uM? Entry: `O=c1c2c(Cl)cc(Cl)c(O)c2ncn1Cc1ccccn1`
102%

====

Assay: Neurotoxicity assay: MTS viability of primary cortical neuronal cultures
Type: cell-based, mouse
Conditions: BL6Jx129sv, mouse, primary cortical neuronal cultures, Neuronal cells, test compound 1 uM; read-out: Cytotoxicity (% viable at 1 and 10 uM)
Reported viability at 4 days, 1 uM values are given for each entry in this list.
Give the value in % but do not write % after it.

Look at this compound and give its reported viability at 4 days, 1 uM. `Cc1cccc(-c2cc(Cl)c3cccnc3c2O)c1`
98

Reported viability at 4 days, 1 uM, compound `N#Cc1ccc2cccc(O)c2n1` : ____
94

Given the entry `Oc1c(I)cc(-c2ccccc2F)c2cccnc12` , report its measured viability at 4 days, 1 uM.
92

Any idea what its viability at 4 days, 1 uM is? The compound is `COc1ccccc1-c1cc(I)c(O)c2ncccc12`
91

So what's the measured viability at 4 days, 1 uM for this one? `Cc1noc(C)c1Cn1cnc2c(O)c(Cl)cc(Cl)c2c1=O`
99

Next:
What value of measured viability at 4 days, 1 uM is listed for `O=C(Nc1ccccc1O)c1ccc2cccc(O)c2n1` ?
104

Could you share which viability at 4 days, 1 uM value was measured for `Oc1c(N2CCOCC2)ncc2cccnc12` ?
104

Give the measured viability at 4 days, 1 uM of `Cn1c(-n2cnc3c(O)c(Cl)cc(Cl)c3c2=O)nc2ccccc21` .
105

Requested field: viability at 4 days, 1 uM. Item: `O=C(O)CNC(=O)c1ccc2cccc(O)c2n1`
100

Item `O=c1c2c(Cl)cc(Cl)c(O)c2ncn1-c1ccc(F)cc1` has what recorded viability at 4 days, 1 uM?
98

Look up viability at 4 days, 1 uM: `Cc1cnc2c(Cl)cc(Cl)c(O)c2n1`
100

Fill in: viability at 4 days, 1 uM of `Oc1cccc2ccc(CN(CCc3c[nH]cn3)Cc3ccccn3)nc12` is ___
98

Given the entry `COc1ccccc1-c1cc(-c2ccccc2OC)c2cccnc2c1O` , report its measured viability at 4 days, 1 uM.
100

What viability at 4 days, 1 uM value was documented for this compound, `O=C(NCCc1c[nH]cn1)c1ccc2c(Cl)cc(Cl)c(O)c2n1` ?
91

Fill in: viability at 4 days, 1 uM of `CCn1cnc2c(O)c(Cl)cc(Cl)c2c1=O` is ___
93

Entry under review: `NCCNC(=O)c1ccc2cccc(O)c2n1` . Reported viability at 4 days, 1 uM?
106

# query: viability at 4 days, 1 uM of entry `CCCCn1cnc2c(O)c(Cl)cc(Cl)c2c1=O`
104
